The measurements presented in this section are drawn from patent US9802901B2.

Test system: Acinetobacter baumannii T6474
Assay: Bacterial growth minimal inhibitory concentration (broth microdilution, CLSI M7-A7)
Type: cell-based
Settings: Acinetobacter baumannii, T6474; cation-adjusted Mueller-Hinton Broth, microdilution; multiply-resistant (quinolone-resistant) strain; read-out: MIC for A. Baumannii T6474
We begin with a simple list: items and their reported MIC.

Below are worked cases with known answers.
{"columns": ["COMPOUND", "SYSTEM UNDER TEST", "VALUE REPORTED"],
 "data": [
  ["C[C@@](CCn1cc2cc(C#Cc3ccc(CO)cc3)ccc2n1)(C(=O)NO)S(C)(=O)=O", "Acinetobacter baumannii T6474", "0.5 µg/mL"],
  ["CC(C)(O)c1ccc(C#Cc2ccc3nn(CC[C@](C)(C(=O)NO)S(C)(=O)=O)cc3c2F)cc1", "Acinetobacter baumannii T6474", "16 µg/mL"],
  ["C[C@@](CCn1cc2cc(C#CC#C[C@H]3C[C@@H]3CO)c(F)cc2n1)(C(=O)NO)S(C)(=O)=O", "Acinetobacter baumannii T6474", "2 µg/mL"],
  ["C[C@@](CCn1cc2c(F)c(C#Cc3ccc(C4(O)COC4)cc3)ccc2n1)(C(=O)NO)S(C)(=O)=O", "Acinetobacter baumannii T6474", "0.5 µg/mL"],
  ["CC(CCn1cc2cc(-c3ccc(OCCN4CCOCC4)cc3)ccc2n1)(C(=O)NO)S(C)(=O)=O.O=CO (racemic)", "Acinetobacter baumannii T6474", "4 µg/mL"]
]}

Identify the reported MIC for the following entry. CC(C)(O)C#CC#Cc1ccc2nn(CC[C@](C)(C(=O)NO)S(C)(=O)=O)cc2c1
32 µg/mL

Identify the reported MIC for the following entry. C[C@@](CCn1cc2cc(C#CC#CC3(O)COC3)c(F)cc2n1)(C(=O)NO)S(C)(=O)=O
> 32 µg/mL
